# targetDesc: T1, Human LILRA1 on transiently transfected HEK293-6E cells (human, UniProt O75019 17-489)
# T1 construct: whole, on cells; also called hLILRA1
# T1 sequence (O75019 17-489): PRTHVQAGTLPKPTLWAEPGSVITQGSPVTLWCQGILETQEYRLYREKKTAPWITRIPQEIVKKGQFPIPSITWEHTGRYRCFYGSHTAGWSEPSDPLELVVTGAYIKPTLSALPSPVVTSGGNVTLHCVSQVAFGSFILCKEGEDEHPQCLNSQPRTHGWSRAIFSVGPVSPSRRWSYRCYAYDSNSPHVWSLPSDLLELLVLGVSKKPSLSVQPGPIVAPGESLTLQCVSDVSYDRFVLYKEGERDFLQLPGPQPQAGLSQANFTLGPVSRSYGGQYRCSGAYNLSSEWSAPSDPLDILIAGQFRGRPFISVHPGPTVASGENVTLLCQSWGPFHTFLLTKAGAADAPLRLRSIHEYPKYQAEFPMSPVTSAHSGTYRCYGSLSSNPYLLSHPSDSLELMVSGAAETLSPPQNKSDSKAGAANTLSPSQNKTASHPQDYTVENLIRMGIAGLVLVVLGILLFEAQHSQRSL
# assaySummary: flow cytometry, transiently transfected HEK293-6E cells

{"columns": ["binder", "unitOfMeasure", "Bmax (MFI)"],
 "data": [
  ["B2H1-55 (antibody, V domains shown, Humanized variant, human IgG1 / kappa; also called humanized variant B2H1-55; humanized LILRB2 antibody B2H1-55) VH: EVQLLESGGGLVQPGTSLTLSCAASGFSLSTYAMSWVRQAPGKGLEWIGWIYNDGSTYYAAWAKGRFTISKDTSKTTLYLQITSLRAEDTATYFCAREGDYIGYFNIWGQGTLVTVSS VL: DVVMTQTPSSVSAALGGTVTIKCQASQSIGSNLAWYQLKPGQRPKLLIYAAATLASGGSSRFKGSGSGTDFTLTISSLEPADAATYYCQSYVSGSSDVAFGGGTEVVVK", "MFI", 783],
  ["B2H1-11 (antibody, V domains shown, Humanized variant, human IgG1 / kappa) VH: QVQLEESGGRVVQPGRSLRLSCAASGFSLSTYAMSWVRQAPGKGLEWIGWIYNDGSTYYAAWAKGRFTISKDTSKTTVFLQMNSLKPDDTATYFCAREGDYIGYFNIWGQGTLVTVSS VL: DIQMTQSPSSLSASVGDRVTITCQASQSIGSNLAWYQLKPGQRPKLLIYAAATLASGVPSRFKGSGSGTDFTLTISSLQSEDAATYYCQSYVSGSSDVAFGGGTEVVVK", "MFI", 776],
  ["B2H1-35 (antibody, V domains shown, Humanized variant, human IgG1 / kappa) VH: QVQLVESGGRVVQPGTPLRLSCAASGFSLSTYAMSWVRQAPGKGLEWVAWIYNDGSTYYAAWAKGRFTISRDTSKNTLYLQTNSLKPDDTAVYYCAREGDYIGYFNIWGQGTLVTVSS VL: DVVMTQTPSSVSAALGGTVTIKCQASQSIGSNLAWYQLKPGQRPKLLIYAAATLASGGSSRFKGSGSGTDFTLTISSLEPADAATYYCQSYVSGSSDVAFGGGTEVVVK", "MFI", 766]
]}
